Assay: solvent given as SMILES
Conditions: in Cc1ccccc1
Each entry below lists one item and its recorded emission maximum value.

Please review the following examples before continuing.
[
  {
    "Structure Smiles": "Cc1cc(-c2nnc(-c3c(C(C)C)cc(C(C)C)cc3C(C)C)o2)ccc1-n1c2ccccc2c2ccccc21",
    "emission maximum": "375 nm"
  },
  {
    "Structure Smiles": "CCn1c2sccc2c2c3nsnc3c3c4ccsc4n(CC)c3c21",
    "emission maximum": "508 nm"
  },
  {
    "Structure Smiles": "c1ccc(-c2nc(-c3ccccc3)nc(-c3ccc(-n4c5ccccc5c5c4c4ccccc4n5-c4ccccc4)cc3)n2)cc1",
    "emission maximum": "526 nm"
  }
]

Problem: Param item = O=C1c2cccc3cc4ccccc4c(c23)C(=O)N1Cc1ccccn1 ; retrieve measured emission maximum.
Solution: 483 nm

Problem: Item Cc1ccc2c(c1)c1cc(C)ccc1n2-c1cccc(-n2c3ccc(C)cc3c3cc(C)ccc32)c1C#N has what recorded emission maximum?
Solution: 417 nm

Problem: What emission maximum value was documented for this compound, c1ccc(-c2c3c(c(-c4ccccc4)c4cc5ccccc5cc24)Cc2c(c(-c4ccccc4)c4cc5ccccc5cc4c2-c2ccccc2)C3)cc1 ?
Solution: 402 nm

---

Listing of recorded emission maximum by entry.
Assay: solvent given as SMILES
Details: in CC#N
Express your answer in nm, writing the number without its unit.

Sample records with emission maximum:
[
  {
    "Structure Smiles": "COC(=O)c1ccccc1-c1c2ccc(=[NH2+])cc-2oc2cc(N)ccc12",
    "Unit Abbreviation": "nm",
    "emission maximum": 525
  },
  {
    "Structure Smiles": "CCN(CC)c1ccc(/N=N/c2nc3ccc([N+](=O)[O-])cc3s2)cc1",
    "Unit Abbreviation": "nm",
    "emission maximum": 607
  }
]

Problem: Sample COc1ccc(C#Cc2nc3ccccc3nc2-c2cn(C)c3ccccc23)cc1 — what was its emission maximum?
Solution: 518

---

emission maximum: recorded values
Experiment: solvent given as SMILES
Details: in C1CCOC1

[
  {
    "Structure Smiles": "COc1cc(/C=C/c2nc3ccccc3s2)c(OC)cc1/C=C/c1nc(C)nc(/C=C/c2cc(OC)c(/C=C/c3nc4ccccc4s3)cc2OC)n1",
    "emission maximum": "490 nm"
  }
]

Problem: Query (compound): CN(C)c1ccc(C2=Cc3cccc[n+]3[B-](F)(F)O2)cc1 ; field requested: emission maximum
Solution: 499 nm

Problem: # emission maximum lookup, item CCN(CC)c1ccc(-c2nc3c(c4c2-c2ccc(C#N)cc2CC4)-c2ccc(C#N)cc2CC3)cc1
Solution: 499 nm

Problem: Name the reported emission maximum value associated with the compound COc1ccc(-n2c3ccccc3c3cc(C=C(C#N)C#N)ccc32)cc1
Solution: 499 nm

---

Experiment: solvent given as SMILES
Settings: in CN(C)C=O
Classification field: enter Y for emission maximum values not below 500 nm, N for values below it.

[
  {
    "Molecule": "CCN(CC)c1ccc2cc(/C=C/C3=C4CC/C(=C\\c5cc6ccc(N(CC)CC)cc6oc5=O)C4=[O+][B-](F)(F)O3)c(=O)oc2c1",
    "Category": "Y"
  },
  {
    "Molecule": "O=C1NC(=O)/C(=C\\c2ccccc2O)S1",
    "Category": "N"
  },
  {
    "Molecule": "COc1cc2c(cc1OC)C1=C3C(=O)N4C=Cc5cc(OC)c(OC)cc5C4=C3C(=O)N1C=C2",
    "Category": "Y"
  },
  {
    "Molecule": "CN(C)c1ccc(C2=Cc3cccc[n+]3[B-](F)(F)O2)cc1",
    "Category": "Y"
  },
  {
    "Molecule": "O=c1[nH]nc(-c2ccc(/C=C/c3ccc(-c4n[nH]c(=O)o4)cc3)cc2)o1",
    "Category": "N"
  },
  {
    "Molecule": "N#Cc1c(N2CCCCC2)cc(-c2ccc(O)cc2)c2c1-c1cccc3cccc-2c13",
    "Category": "Y"
  },
  {
    "Molecule": "CCCCC1(c2ccc(OC)cc2)Nc2ccccc2N=C1c1ccc(OC)cc1 (stereo unspecified)",
    "Category": "Y"
  },
  {
    "Molecule": "O=S(=O)(c1ccc(-c2ccc(-c3nc4c5ccccc5c5ccccc5c4n3-c3ccccc3)cc2)cc1)c1ccc(-c2ccc(-c3nc4c5ccccc5c5ccccc5c4n3-c3ccccc3)cc2)cc1",
    "Category": "N"
  },
  {
    "Molecule": "CC[N+]1(CC)CN2C(=N1)C(C(=O)O)=Cc1ccccc12",
    "Category": "N"
  },
  {
    "Molecule": "O=C([O-])c1c2ccccc2c(C(=O)[O-])c2ccccc12",
    "Category": "N"
  }
]

Problem: Is it the case that CCN(CC)c1ccc(/C=N/C(C#N)=C(C#N)/N=C/c2ccc(N(CC)CC)cc2O)c(O)c1 has emission maximum reaching or exceeding 500 nm?
Solution: Y

Problem: Has COc1ccc(-n2nc(C(=O)N3CCCC3)c(N3CCCC3)n2)cc1 a recorded emission maximum greater than or equal to 500 nm?
Solution: N

Problem: Does CC(C)(C)c1ccc(-c2nc3c4ccccc4c4ccccc4c3n2-c2ccc(C(C)(C)C)cc2)cc1 have a reported emission maximum of at least 500 nm?
Solution: N

Problem: Tell me whether emission maximum is at least 500 nm here: CCN(CC)c1ccc(/C=C2\CC/C(=C\c3ccc(N(c4ccccc4)c4ccccc4)cc3)C2=C(C#N)C#N)cc1
Solution: Y

Problem: For this molecule, is measured emission maximum 500 nm or higher? c1ccc(-c2nc(-c3ccccc3)nc(-c3ccc(-n4c5ccccc5c5c6c(ccc54)C4(c5ccccc5-c5ccccc54)c4ccccc4-6)cc3)n2)cc1
Solution: Y

Problem: For this molecule, is measured emission maximum 500 nm or higher? CCCCCCC(CCCCCC)N1C(=O)c2cccc3c(-c4ccc([Si](C)(C)C)cc4)ccc(c23)C1=O
Solution: N

Problem: Exam item: decide whether the reported emission maximum for CC1=C(C(C)(C)C)C(C)=[N+]2C1=C(C)c1c(C)c(C(C)(C)C)c(C)n1[B-]2(F)F is at least 500 nm.
Solution: Y

Problem: Threshold query (emission maximum >= 500 nm) on C[n+]1ccc(/C=C/c2ccc([O-])cc2)cc1
Solution: Y

Problem: API: above_or_equal(metric=emission maximum, cutoff=500 nm) for item COc1ccc(C(=O)/C=C2\C(=O)Nc3ccccc32)cc1
Solution: N

Problem: Confirm if emission maximum reported for the molecule CC(C)(C)c1ccc2oc(-c3ccc(-c4nc5cc(C(C)(C)C)ccc5o4)s3)nc2c1 is 500 nm or above.
Solution: N

Problem: Exam item: decide whether the reported emission maximum for COc1ccc2c3c(cccc13)C(=O)N(C)C2=O is at least 500 nm.
Solution: N

Problem: Kindly determine if emission maximum recorded for CCCCN1\C(=C/C=C/C=C/C2=[N+](CCCC)c3ccc4ccccc4c3C2(C)C)C(C)(C)c2c1ccc1ccccc21 is above or exactly 500 nm.
Solution: Y

Problem: hey, is emission maximum for this one >= 500 nm? COc1cc(/C=C/c2cc[n+](Cc3ccc(Br)cc3)cc2)ccc1O
Solution: Y

Problem: Quick check: does COc1ccc(-n2nc(C#N)c(N3CCCC3)n2)cc1 have emission maximum greater than or equal to 500 nm?
Solution: N

Problem: Assess whether reported emission maximum for Cc1ccc2nc(-c3cccc4nc(C)[nH]c(=O)c34)oc2c1 sits at 500 nm or higher.
Solution: N

---

Assay: solvent given as SMILES
Settings: in CC#N
Each entry below carries its recorded emission maximum.
Write the answer as a number in nm, unit excluded.

Known emission maximum results, listed for orientation:
[
  {
    "Structure Smiles": "O=C1C(=Cc2ccc(Br)cc2)Oc2cccc(O)c21",
    "emission maximum [nm]": 487
  },
  {
    "Structure Smiles": "COc1cc2c(cc1/C=C(\\C#N)c1nc3ccccc3s1)c1ccccc1n2C",
    "emission maximum [nm]": 509
  }
]

Problem: Need emission maximum of CSc1sc(C(=O)c2ccccc2)c2nn[nH]c(=O)c12 , thanks.
Solution: 485

Problem: I would be grateful if you could share the reported emission maximum for COc1cc2cc(-c3cc4cc(OC)c(OC)cc4oc3=O)oc2cc1OC .
Solution: 493

Problem: # lookup: emission maximum of O=S(=O)([O-])c1cc([O-])c2ccc3c(S(=O)(=O)[O-])cc(S(=O)(=O)[O-])c4ccc1c2c34
Solution: 513

Problem: What value of emission maximum has been recorded for this entry: Cc1cc(C2(c3cc(C)c(O)c(Br)c3)OS(=O)(=O)c3ccccc32)cc(Br)c1O
Solution: 497

Problem: Record request: emission maximum value, item F[B-]1(F)n2c(c3cccc4cccc2c43)=Nc2sc3ccccc3[n+]21
Solution: 500
